Origin of the recorded values: patent US11566007B2

# Lookup of reported EC50 keyed by entry
- Tested on: NCI-H358 cells (K-Ras G12C)
- assay explanation: Potency assay: pERK in NCI-H358 cells
- Format: cell-based, human
- measurement setup: H358 KRAS G12C; read-out: pERK EC50
attribute measured: EC50

# compound, reported value
measured = [
    ("CCn1c(-c2cccnc2[C@H](C)OC)c2c3cc(ccc31)N1CCC[C@@H](C[C@H](NC(=O)[C@H](C(C)C)N(C)C(=O)C3(F)CCN(C(=O)C#CC(C)(C)N(C)C)CC3)C(=O)N3CCC[C@H](N3)C(=O)OCC(C)(C)C2)C1 (atropisomer, axis not shown) [Example A616]", "< 5 µM"),
    ("C=CC(=O)N1CCN(C(=O)N(C)[C@H](C(=O)N[C@H]2Cc3cc(O)cc(c3)-c3ccc4c(c3)c(c(-c3cccnc3[C@H](C)OC)n4CC)CC(C)(C)COC(=O)[C@@H]3CCCN(N3)C2=O)C(C)C)CC1 [Example A338]", "< 5 µM"),
]

* * *

- target system: K-Ras G12C (Homo sapiens (Human), UniProt P01116+P62937, G12C)
- Sequence (P01116-2 other isoform, or with tags, fused parts or gaps G12C): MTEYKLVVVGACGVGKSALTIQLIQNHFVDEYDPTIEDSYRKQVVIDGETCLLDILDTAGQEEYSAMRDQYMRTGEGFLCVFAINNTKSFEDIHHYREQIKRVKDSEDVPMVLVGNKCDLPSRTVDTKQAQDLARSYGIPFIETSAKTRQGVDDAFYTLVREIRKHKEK
- Sequence (P62937 whole entry): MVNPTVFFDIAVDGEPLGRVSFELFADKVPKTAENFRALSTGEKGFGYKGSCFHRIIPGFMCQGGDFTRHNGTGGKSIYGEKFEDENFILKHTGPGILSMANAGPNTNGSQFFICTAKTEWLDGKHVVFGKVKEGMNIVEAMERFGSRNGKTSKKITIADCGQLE
- assay explanation: Ras-Raf (BRAF RBD) disruption / FRET / MOA assay, KRAS G12C
- Assay type: biochemical
- measurement setup: KRAS G12C; Ras-Raf disruption/FRET/MOA assay; read-out: IC50* KRAS G12C FRET data
pIC50: −log10 of the molar value.
attribute measured: pIC50

# compound, reported value
data = [
    ("C=CC(=O)N1CC2(CCN(C(=O)N(C)[C@H](C(=O)N[C@H]3Cc4cccc(c4)-c4ccc5c(c4)c(c(-c4cccnc4[C@H](C)OC)n5CC)CC(C)(C)COC(=O)[C@@H]4CCCN(N4)C3=O)C(C)C)CC2)C1 (atropisomer, axis not shown)", "6.00 to 7.00"),
    ("CCn1c(-c2cccnc2[C@H](C)OC)c2c3cc(ccc31)-c1cccc(c1)C[C@H](NC(=O)[C@@H](COC1CN(C(=O)C#C[C@@H]3OCCCN3C)C1)C(C)C)C(=O)N1CCC[C@H](N1)C(=O)OCC(C)(C)C2 (atropisomer, axis not shown)", "6.00 to 7.00"),
    ("CCn1c(-c2cccnc2COC)c2c3cc(ccc31)-c1cc(O)cc(c1)C[C@H](NC(=O)[C@H](C(C)C)N(C)C(=O)[C@@H]1CCN(C(=O)C#CC(C)(C)N(C)C)C1)C(=O)N1CCC[C@H](N1)C(=O)OCC(C)(C)C2", "> 8.00"),
    ("C=CC(=O)N1CC[C@H](C(=O)N(C)[C@H](C(=O)N[C@H]2Cc3nc(cs3)-c3ccc4c(c3)c(c(-c3cc(C5=CCN(C)CC5)cnc3[C@H](C)OC)n4CC)CC(C)(C)COC(=O)[C@@H]3CCCN(N3)C2=O)C(C)C)C1 (atropisomer, axis not shown) [Example A521]", "5.00 to 6.00"),
    ("C=CC(=O)N1CCC[C@H]2CN(C(=O)N(C)[C@H](C(=O)N[C@H]3Cc4nc(cs4)-c4ccc5c(c4)c(c(-c4cccnc4[C@H](C)OC)n5CC)CC(C)(C)COC(=O)[C@@H]4CCCN(N4)C3=O)C(C)C)C[C@H]21 (atropisomer, axis not shown)", "6.00 to 7.00"),
    ("C=CC(=O)N(C)[C@H]1CN(C(=O)N(C)[C@H](C(=O)N[C@H]2Cc3nc(cs3)-c3ccc4c(c3)c(c(-c3cccnc3[C@H](C)OC)n4CC)CC(C)(C)COC(=O)[C@@H]3CCCN(N3)C2=O)C(C)C)C[C@@H]1F (atropisomer, axis not shown)", "7.00 to 8.00"),
    ("C=CC(=O)N1CC[C@H](C(=O)N(C)[C@H](C(=O)N[C@H]2Cc3cc(O)cc(c3)-c3ccc4c(c3)c(c(-c3cccc(=O)n3C(C)C)n4CC)CC(C)(C)COC(=O)[C@@H]3CCCN(N3)C2=O)C(C)C)C1", "6.00 to 7.00"),
    ("CCn1c(-c2cccnc2[C@H](C)OC)c2c3cc(ccc31)-c1cccc(c1)C[C@H](NC(=O)[C@H](C(C)C)N1CC[C@@]3(CCN(C(=O)C#C[C@H]4COCCN4C4COC4)C3)C1=O)C(=O)N1CCC[C@H](N1)C(=O)OCC(C)(C)C2 (atropisomer, axis not shown)", "7.00 to 8.00"),
    ("CO[C@@H](C)c1ncccc1-c1c2c3cc(ccc3n1CC(F)(F)F)-c1cnc(o1)C[C@H](NC(=O)[C@H](C(C)C)N(C)C(=O)[C@H]1CCN(C(=O)C#CC(C)(C)N(C)C)C1)C(=O)N1CCC[C@H](N1)C(=O)OCC(C)(C)C2 (atropisomer, axis not shown)", "> 8.00"),
    ("CCn1c(-c2cccnc2[C@H](C)OC)c2c3cc(ccc31)-c1csc(n1)C[C@H](NC(=O)C[C@H](C)OC1CN(C(=O)C#CC(C)(C)N(C)C)C1)C(=O)N1CCC[C@H](N1)C(=O)OCC(C)(C)C2 (atropisomer, axis not shown)", "7.00 to 8.00"),
    ("C=CC(=O)N1CC(OC[C@H](C(=O)N[C@H]2C[C@H]3CN(CCO3)c3ccc4c(c3)c(c(-c3cccnc3[C@H](C)OC)n4CC(F)(F)F)CC(C)(C)COC(=O)[C@@H]3CCCN(N3)C2=O)C(C)C)C1 (atropisomer, axis not shown)", "6.00 to 7.00"),
    ("CCn1c(-c2cccnc2[C@H](C)OC)c2c3cc(ccc31)-c1csc(n1)C[C@H](NC(=O)[C@H](C(C)C)N(C)C(=O)N(C)C1CN(C(=O)/C=C/[C@@H]3CCCN3C)C1)C(=O)N1CCC[C@H](N1)C(=O)OCC(C)(C)C2 (atropisomer, axis not shown)", "7.00 to 8.00"),
    ("C=CC(=O)N1CCC2(CC1)CN(C(=O)N(C)[C@H](C(=O)N[C@H]1Cc3nc(cs3)-c3ccc4c(c3)c(c(-c3cccnc3[C@H](C)OC)n4CC)CC(C)(C)COC(=O)[C@@H]3CCCN(N3)C1=O)C(C)C)C2 (atropisomer, axis not shown)", "6.00 to 7.00"),
    ("C=CC(=O)N1CC[C@H](C(=O)N(C)[C@@H](CC(F)(F)F)C(=O)N[C@H]2Cc3cccc(c3)-c3ccc4c(c3)c(c(-c3cccnc3[C@H](C)OC)n4CC)CC(C)(C)COC(=O)[C@@H]3CCCN(N3)C2=O)C1 (atropisomer, axis not shown)", "6.00 to 7.00"),
    ("C=CC(=O)N1CC[C@H](C(=O)N(C)[C@H](C(=O)N[C@H]2CC3=CCCN(C3)c3ccc4c(c3)c(c(-c3cccnc3[C@H](C)OC)n4CC)CC(C)(C)COC(=O)[C@@H]3CCCN(N3)C2=O)C(C)C)C1 (atropisomer, axis not shown)", "6.00 to 7.00"),
]
